Target: T1, his-tagged B7-H3 (UniProt Q5ZPR3-2 29-245, limits assumed)
T1 construct: also called CD276; not shown: His tag
T1 sequence (looked up): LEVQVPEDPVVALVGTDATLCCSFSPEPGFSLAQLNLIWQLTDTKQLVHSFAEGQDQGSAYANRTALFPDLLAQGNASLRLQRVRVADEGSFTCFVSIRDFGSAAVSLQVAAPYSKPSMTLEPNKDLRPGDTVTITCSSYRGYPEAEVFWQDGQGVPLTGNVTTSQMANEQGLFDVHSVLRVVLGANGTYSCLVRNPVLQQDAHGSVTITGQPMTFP
Test: SPR, Carterra LSA; binder captured by anti-human Fc, his-tagged B7-H3 injected
Each item that follows carries a reported Kd.
Answer by giving the amount and then stating its unit.

Recorded results for 3 binders are shown here.
40633p1.1.G10 scFv-Fc (scFv, V domains shown) VH: EVQLLESGGGLVEPGGSLRLSCAASGFSFSSYGMHWVRQAPGKGLDWVAVINGEGSGTYYADSVKGRFTISRDNSKSTLYLQMNSLRAEDTAVYYCTKYYYNYAMDVWGQGTTVTVSS VL: QSVLTQPPSASGTPGQRVTISCSGSRTDIGTTSVNWYQQLPGTAPKLLIYQSHQRPSGVPDRFSGSKSGTSASLAISGLQSEDEADYYCASWDASQNTWVFGGGTKLTVL; 0.248 nM
40511p1.2.B5 scFv-Fc (scFv, V domains shown) VH: DVQLVESGGGVVRPGESLRLSCAASGFTFSSYAMSWVRQAPGEGLEWVSSISGSGGSTLYADSVKGRFTISRDSSNNSLYLQMNSLRAEDTAVYYCAKARNNFFDYWGLGTLVTVSS VL: EIVLTQSPGTLTLSPGERATLSCRASRSILTSLAWYQQRPGQTPRLLIYGANSRATGIPDRFSGSGSGTEFTLTISSLQSEDFAVYYCQQYYDWLTITFGGGTKVEIK; 61.2 nM
40633p1.1.A11 scFv-Fc (scFv, V domains shown) VH: EVQLLESGGDLVQPGGSLRLSCAASGFTFNTYWMNWVRQAPGKGLEWVAGINSKGGVTYYADSVKGRFTISRDNSKNTLYLQMNSLRAEDTAVYYCADWNDYDIMDVWGQGTTVTVSS VL: QSVLTQPPSASGTPGQTITISCSGSSSNVGRRTVNWYQQLPGTAPKLLIYTNAQRPSGVPDRFSGSKSGTSASLAISGLQSEDEADYYCATWDDSLNAWVFGGGTKLTVL; 17.4 nM

Query: Item 40511p1.1.G1 scFv-Fc (scFv, V domains shown, Tested as scFv-Fc supernatant) VH: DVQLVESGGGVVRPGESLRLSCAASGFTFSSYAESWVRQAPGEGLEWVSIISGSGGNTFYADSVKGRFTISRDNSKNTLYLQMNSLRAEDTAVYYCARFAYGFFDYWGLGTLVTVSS VL: EIVLTQSPGTLSVSPGEGATLSCRASQTVGSKLAWYQQKPGQPPSLLIYDASTRATGIPDRFSGSGSGTDFTLTISSLQSEDFAVYYCQQYRNWPPLTFGGGTKVEIK has what recorded Kd?
Response: 54.4 nM

Query: Item 40511p1.1.D3 scFv-Fc (scFv, V domains shown) VH: DVQLVESGGGVVRPGGSLRLSCAASGFTFRSYGMNWVRQAPGEGLEWVSRMSSGGGAYYADSVKGRFTISRDNSKNTLYLQMNSLRAEDTAVYYCARNSRDFFFDQWGLGTLVTVSS VL: ETVLTQSPGTLSLSPGERATLSCRASQSVNSKLAWYQQKPGQAPRLLIYGASSRATGIPARFSGSGSGTEFTLTISSLQTEDFAVYYCQQYSDWPPLTFGGGTKVEIK has what recorded Kd?
Response: 321 nM

Query: Item 40633p1.1.G7 scFv-Fc (scFv, V domains shown, Tested as scFv-Fc supernatant) VH: EVQLLESGGGLVQPGGSLRLSCAASGFTFSGSAMNWVRQAPGKGLEWVSAINSGGTTIYYADSVKGRFTVSRDNSKNTLYLQMNSLRAEDTAVYYCVKLDFYYGMDVWGEGTTVTVSS VL: QSVVTQPPSASGTPGQRVTVSCSGSSSNVGSKYVQWYQQLPGTAPKLLIYATDRRPSGVPDRFSGSKSGTSASLAISGLQSEDEADYYCASWDDSLNAWVFGGGTKLTVL has what recorded Kd?
Response: 0.113 nM

Query: Item 40633p1.1.H11 scFv-Fc (scFv, V domains shown, Tested as scFv-Fc supernatant) VH: EVQLLESGGGLVQPGGSLRLSCAASGFTFSSYPMTWVRQAPGKGLEWVADINSGGGTTLYADAVKGRFTISRDNSKNIVYLQMNSLRGEDTAVYYCAKHLDYYSYGMDVWGQGTTVTVSS VL: QSVLTQPPSASGTPGQRVTISCSGVTSKIGSKYVHWYQQLPGTAPKLLIYRNFERPSGVPDRFSGSTSGTSASLAISGLQSEDEADYYCATWEGALNGWVFGGGTKLTVL has what recorded Kd?
Response: 0.175 nM

Query: Item 40633p1.1.B3 scFv-Fc (scFv, V domains shown, Tested as scFv-Fc supernatant) VH: EVQLLESGGGLVQPGGSLRLSCAASGFTVSYYGMSWVRQAPGKGLEWVSAIKQDGSEKYYADSVKGRFTISRDNSKNTLYLQMNSLRAEDTAVYYCARHWNDYSNAMNVWGQGTTVTVSS VL: QSVLTQPPSASGTPGQRVTISCSGSTSNIGRESVYWYQQLPGTAPKLLIYTIDQRPSGVPDRFSGSKSGTSASLAISGLQSEDEADYYCGTWDDSLNAWVFGGGTKLTVL has what recorded Kd?
Response: 6.42 nM

Query: Item 40633p1.2.A10 scFv-Fc (scFv, V domains shown, Tested as scFv-Fc supernatant) VH: EVQLLESGGGLVQPGGSLRLSCAASGFTVSYYGMSWVRQAPGKGLEWVSVIKQDGSEEYYADSVKGRFTISRDNSKNTLYLQMNSLRAEDTAVYYCARHWNDYSNGMNVWGQGTTVTVSS VL: QSVLTQPPSASGTPGQRVTISCSGSTSNVGDRYVYWYQQLPGTAPKLLIYLDDQRPSGVPDRFSGSKSGTSASLAISGLQSEDEADYYCASWDASLNGWVFGGGTKLTVL has what recorded Kd?
Response: 1.44 nM

Query: Item 40511p1.1.H10 scFv-Fc (scFv, V domains shown) VH: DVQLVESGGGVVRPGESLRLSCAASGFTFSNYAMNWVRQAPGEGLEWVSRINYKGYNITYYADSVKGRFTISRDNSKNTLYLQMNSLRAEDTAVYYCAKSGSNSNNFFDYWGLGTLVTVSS VL: EIVLTQSPGNLSLSPGERATLSCRASQSVGSQLGWYQQKPGQAPRLLIYGASTRATGIPDRFSGSGSGTEFALTISSLQSEDFAVYYCQQYYDWPPLTFGGGTKVEIK has what recorded Kd?
Response: 1.41 nM

These measurements were taken from patent US20260008852A1.
